// reported pull-down binding Z-score per item
Tested on: TO-N3 (biotin conjugate)
Test: pull-down binding Z-score (relative to library population); higher = stronger binding
Settings: RNA library: Library-2
I'd appreciate a reply containing only the number, no unit.

- RESIDUES: "GGAAUGGAUCCC [IAV_invivo_NP_5_Motif_9+IAV_invivo_NP_5_Motif_9]"
  TGT: "TO-N3 (biotin conjugate)"
  pull-down binding Z-score: -0.323
- RESIDUES: "GAGUGUAAUUACGUACAUGCAGUAGCUC [hsa-mir-618]"
  TGT: "TO-N3 (biotin conjugate)"
  pull-down binding Z-score: 0.341
- RESIDUES: "GAUUGGUUAGCCUAAGACUUGUUCUGAUCCAAUC [hsa-mir-5701-1_5701-2_5701-3]"
  TGT: "TO-N3 (biotin conjugate)"
  pull-down binding Z-score: 0.513
- RESIDUES: "CUCAAGUCCUCUAUUUCUUUGAA [hsa-mir-7978]"
  TGT: "TO-N3 (biotin conjugate)"
  pull-down binding Z-score: -0.484

Attention now turns to another entry.
input: What does the record list as pull-down binding Z-score for CCUUUGUGAGCAGUGUGACCCAAGGCCUGUGGACAGGG [hsa-mir-555] ?
output: 0.241

---

Tested on: TO-3-N3 (biotin conjugate)
Experiment: pull-down binding Z-score (relative to library population); higher = stronger binding
Conditions: RNA library: Library-2
// reported pull-down binding Z-score per item
I'd appreciate a reply containing only the number, no unit.

Study these solved cases before continuing.
- RESIDUES: "UGGAAGCUCCAGGUGCCAACCACCUGCCUCUA [hsa-mir-6731]"
  TGT: "TO-3-N3 (biotin conjugate)"
  pull-down binding Z-score: 0.00854
- RESIDUES: "CUGGGAAGAGACCAUGAACAGGUUAGUCCAG [hsa-mir-4327]"
  TGT: "TO-3-N3 (biotin conjugate)"
  pull-down binding Z-score: 0.385
- RESIDUES: "CACUCCCGGGAUCCCCAGGGAC [hsa-mir-3176]"
  TGT: "TO-3-N3 (biotin conjugate)"
  pull-down binding Z-score: 0.149

input: What does the record list as pull-down binding Z-score for GAUGAGUACGAACUUAUGUACUCAUU ?
output: -0.907

input: What does the record list as pull-down binding Z-score for CUUCAGAGCAGGGUUUGGUCUGUGCUUCUCUG [hsa-mir-6719] ?
output: -0.415

input: What does the record list as pull-down binding Z-score for GUUGAAGUUGUUGAUAAGUACUUUGAUUGUUACGAUGGUGGCUGUAUUAAUGCUAACCAAGUCAUCGUCAACAACCUAGACAAAUCAGCUGGUUUUCCAUUUAAU ?
output: -0.27

---

// reported pull-down binding Z-score per item
Tested on: TO-N3-2 (biotin conjugate)
Test: pull-down binding Z-score (relative to library population); higher = stronger binding
Conditions: RNA library: Library-2

Study these solved cases before continuing.
- RESIDUES: "AGUCUUGUAGUGCGUUGUUCGUUCUAUGAAGACU"
  pull-down binding Z-score: -1.06
- RESIDUES: "ACAAGUUGCAAUUUACAAGUCUUGAAAUUCCACGUAGGAAUGUGGCAACUUUACAAGCUGAAAAUGUAACAGGACUCUUUAAAGAUUGU"
  pull-down binding Z-score: 0.121
- RESIDUES: "CAUUGUAAUAGUUCAUAUGGGCACUG [hsa-mir-3660]"
  pull-down binding Z-score: 0.0148
- RESIDUES: "GCUUCAAGAGAGC"
  pull-down binding Z-score: -0.212
- RESIDUES: "UGGAGGAAUACAAAUCCA [SHAPE_invitro_SARS-CoV-2_Motif_386]"
  pull-down binding Z-score: -0.404

input: Test system TO-N3-2 (biotin conjugate); read-out pull-down binding Z-score; what value for UUGGCCUUUAUUUUCAAUGGCAAG [hsa-mir-548b] ?
output: 0.0975

input: Test system TO-N3-2 (biotin conjugate); read-out pull-down binding Z-score; what value for GCCAGUGUGUAAAAUGAGAACUGAUA [hsa-mir-3074] ?
output: 1.66

input: Test system TO-N3-2 (biotin conjugate); read-out pull-down binding Z-score; what value for GUGGCUUGUGGCUGAGUGUCACGCUGC [hsa-mir-6068] ?
output: 0.225

These data points were gathered from the supplement of paper PMC11865577.
